// provenance: PubChem BioAssay AID1851

molecular target: Cytochrome P450 2C19 (Homo sapiens); test: Cytochrome panel assay with activity outcomes; conditions: recombinant CYP, pro-luciferin dealkylation, luminescence, p450-cyp2c19; series mostly up to 57.1 µM
About 5,800 (36%) of roughly 16,000 compounds were called active. Roughly 23% stayed inconclusive and do not appear here. The list shows a part of the results.
quantity.kind: AC50

Consider the following illustrative entries.
In [3]: df
Out[3]:
                                   compound                target_or_test_system             result
0  C[C@@]1(C(NC(=O)c2cccs2)c2ccc(-c3ccccc3)cc2)C[C@H]1C1CCCCC1 (stereo not given in full)  Cytochrome P450 2C19 (Homo sapiens)           inactive
1  c1ccc(-c2nc(NCCCn3ccnc3)c3oc4ccccc4c3n2)cc1  Cytochrome P450 2C19 (Homo sapiens)  0.158 µM (active)
2  O=C(Nc1ccc(Cl)cc1)OCc1cc(-c2ccccc2Cl)on1  Cytochrome P450 2C19 (Homo sapiens)  0.316 µM (active)
3  CCSc1nc2ccccc2n1C(=O)/C=C\c1ccc(OC)c(OC)c1  Cytochrome P450 2C19 (Homo sapiens)   7.94 µM (active)
4  N#C/C(=C/c1ccc(N2CCCC2)c([N+](=O)[O-])c1)c1nc2ccccc2[nH]1  Cytochrome P450 2C19 (Homo sapiens)   1.26 µM (active)
5  CCc1c(C(=O)NCc2ccc3c(c2)OCO3)[nH]c(C)c1C(C)=O  Cytochrome P450 2C19 (Homo sapiens)   7.08 µM (active)
6  COc1cccc(Cn2c(=O)c(-c3cn(C)c4ccccc34)nc3cnc(N4CCOCC4)nc32)c1  Cytochrome P450 2C19 (Homo sapiens)           inactive
7  CC1CCCN(C/C=C/c2ccccc2[N+](=O)[O-])C1 (stereo not given)  Cytochrome P450 2C19 (Homo sapiens)   8.91 µM (active)

Q. Which AC50 is listed for COc1ccc(S(=O)(=O)N2CCCCCC2)cc1N(C)S(=O)(=O)c1ccc(Cl)cc1 ?
A. 5.01 µM (active)
